These data points were gathered from patent US9796711B2.

# SUBJECT_OF_TEST: ΔF508-CFTR (Homo sapiens, UniProt P13569, DEL508-508)
# Construct: host or cells: CFBE41o-, doxycycline-inducible
# Sequence (P13569 with tags, fused parts or gaps DEL508-508): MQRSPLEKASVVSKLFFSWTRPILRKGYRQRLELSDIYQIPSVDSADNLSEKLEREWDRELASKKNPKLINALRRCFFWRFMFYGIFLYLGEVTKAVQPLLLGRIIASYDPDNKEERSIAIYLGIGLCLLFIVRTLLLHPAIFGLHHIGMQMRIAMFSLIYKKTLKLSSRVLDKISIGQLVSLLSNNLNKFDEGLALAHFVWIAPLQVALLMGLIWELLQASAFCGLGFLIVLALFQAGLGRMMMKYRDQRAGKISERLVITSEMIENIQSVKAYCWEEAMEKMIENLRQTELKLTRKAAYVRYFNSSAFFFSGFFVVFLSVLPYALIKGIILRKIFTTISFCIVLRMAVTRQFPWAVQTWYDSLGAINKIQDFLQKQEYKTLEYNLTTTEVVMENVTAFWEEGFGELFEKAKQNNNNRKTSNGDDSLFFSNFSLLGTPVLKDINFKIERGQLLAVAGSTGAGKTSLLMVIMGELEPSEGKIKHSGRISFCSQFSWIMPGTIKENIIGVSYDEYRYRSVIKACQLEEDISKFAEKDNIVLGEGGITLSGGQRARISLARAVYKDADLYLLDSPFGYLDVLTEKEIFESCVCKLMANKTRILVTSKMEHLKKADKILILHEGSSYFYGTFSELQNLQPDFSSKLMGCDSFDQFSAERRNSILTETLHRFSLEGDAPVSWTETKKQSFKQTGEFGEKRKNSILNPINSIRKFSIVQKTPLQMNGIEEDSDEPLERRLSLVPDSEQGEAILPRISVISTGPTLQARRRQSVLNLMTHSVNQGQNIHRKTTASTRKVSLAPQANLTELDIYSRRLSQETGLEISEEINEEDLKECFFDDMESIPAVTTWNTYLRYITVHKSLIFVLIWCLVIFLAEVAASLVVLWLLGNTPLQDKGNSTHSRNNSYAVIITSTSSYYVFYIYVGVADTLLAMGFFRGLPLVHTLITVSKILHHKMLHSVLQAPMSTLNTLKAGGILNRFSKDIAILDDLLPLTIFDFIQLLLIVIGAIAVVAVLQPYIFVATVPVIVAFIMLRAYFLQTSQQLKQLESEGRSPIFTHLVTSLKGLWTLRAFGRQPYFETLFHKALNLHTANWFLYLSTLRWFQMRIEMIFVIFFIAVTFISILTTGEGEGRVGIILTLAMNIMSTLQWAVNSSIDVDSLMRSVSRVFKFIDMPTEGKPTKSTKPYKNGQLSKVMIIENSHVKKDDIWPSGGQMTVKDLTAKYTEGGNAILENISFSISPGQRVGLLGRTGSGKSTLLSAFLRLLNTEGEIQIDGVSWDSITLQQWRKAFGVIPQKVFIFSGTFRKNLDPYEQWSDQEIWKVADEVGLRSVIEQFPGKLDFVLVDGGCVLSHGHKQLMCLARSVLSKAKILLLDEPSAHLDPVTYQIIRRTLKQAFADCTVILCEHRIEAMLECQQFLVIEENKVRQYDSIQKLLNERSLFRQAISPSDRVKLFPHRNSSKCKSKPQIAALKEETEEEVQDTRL
# ASSAY_PROTOCOL: CFTR cell surface levels using HRP-tagged ΔF508-CFTR expressing CFBE cells, in the presence of a co-corrector
# Format: cell-based
# CONDITION: HRP-tagged ΔF508-CFTR expressing CFBE cells, in the presence of 3 μM co-corrector; read-out: EC50
QUANTITY: pEC50
The read-out pEC50 is expressed as -log10 of concentration in moles per litre.

Returns the measured pEC50 for the input molecule. Input: CC(C)N1CCC2CN(c3cc(C(=O)O)nc4c3c(C3CCC3)nn4-c3ccc(F)cc3)CCC21 (centres unmarked) [compound 900] 6.67

And Cc1nn(-c2ccccc2)c2nc(C(=O)O)cc(O[C@H]3C[C@H](N4CCCCC4)C3)c12 [compound 345] ? 5.38

Also CC(C)c1nn(C2CCCCC2)c2nc(C(=O)O)cc(N3CCC(C#N)CC3)c12 [compound 263] ? 5.95

Same lookup for COCCN1CCN(c2ccc(-c3cc(C(=O)O)nc4c3c(C3CCC3)nn4C3CCCCC3)cn2)CC1 [compound 878] , please. 7.00

Same read-out for O=C(O)c1cc(-c2ccc(N3CCOCC3)cc2)c2c(C3CCC3)nn(-c3ccc(C(F)(F)F)cc3)c2n1 [compound 356] ? 6.37

And then CN1CCCN(c2cc(C(=O)O)nc3c2c(C2CCC2)nn3-c2ccccc2)CC1 [compound 702] , what is it? 5.78

Please answer likewise for Cc1nn(-c2ccccc2)c2nc(C(=O)O)cc(N3CCC(C(=O)N4CCCC4)CC3)c12 [compound 305] 5.84

And the next one, COC1CCN(c2cc(C(=O)O)nc3c2c(C)nn3-c2ccccc2)CC1 [compound 143] ? 5.62

Okay, and CC(C)c1nn(-c2ccc(F)cc2)c2nc(C(=O)O)cc(N3CCC(N(C)C4COC4)CC3)c12 [compound 751] ? 5.80

Lookup N#CCN1CC(c2nn(-c3ccccc3)c3nc(C(=O)O)cc(-c4ccc(N5CCOCC5)cc4)c23)C1 [compound 148] 5.48

Try this molecule next: CC(C)c1nn(-c2ccc(F)cc2)c2nc(C(=O)O)cc(-c3cnc(N(C)C4CCOCC4)nc3)c12 [compound 280] 6.60

What do you have for COC1CN(C(=O)COc2cc(C(=O)O)nc3c2c(C2CCC2)nn3-c2ccccc2)C1 [compound 481] ? 5.52

What would you report for CC(C)c1nn(-c2cccc(N3CCCC3)c2)c2nc(C(=O)O)cc(-c3ccc(N(C)C4CCOCC4)cc3)c12 [compound 249] ? 6.54

And Cc1cccc(-n2nc(C(C)C)c3c(N4CC5CN(CC#N)CC5C4)cc(C(=O)O)nc32)c1 (centres unmarked) [compound 226] ? 5.87

COC(C)C1CCN(c2cc(C(=O)O)nc3c2c(C2CCC2)nn3-c2ccccc2)CC1 (centres unmarked) [compound 498] , same question. 7.06

And then CC(C)c1nn(-c2ccc(F)cc2)c2nc(C(=O)O)cc(N3CCC[C@@H](O)C3)c12 [compound 783] , what is it? 5.78

Check COC1CCN(c2cc(C(=O)O)nc3c2c(C(C)C)nn3-c2ccc(F)cc2)CC1 [compound 393] too. 6.50

Please do the same for O=C(O)c1cc(N2CCCN(CC3CCCO3)CC2)c2c(C3CCC3)nn(-c3ccccc3)c2n1 (centres unmarked) [compound 572] as well. 5.92

Also CC(C)c1nn(-c2ccc(F)cc2F)c2nc(C(=O)O)cc(-c3ccc(N4CCC(C#N)CC4)nc3)c12 [compound 326] ? 6.24

Also need COCC1(C)CN(c2cc(C(=O)O)nc3c2c(C2CCC2)nn3-c2ccccc2)C1 [compound 521] , thanks. 6.54

CC(C)c1nn(C2CCCCC2)c2nc(C(=O)O)cc(-c3cnc(N(C)C4CCN(C(=O)OC(C)(C)C)CC4)nc3)c12 [compound 374] , same question. 6.33

Likewise for CS(=O)(=O)NC1CCN(c2cc(C(=O)O)nc3c2c(C2CCC2)nn3-c2ccccc2)CC1 [compound 519] ? 5.48

Next molecule up: COCCOCC1(F)CCN(c2cc(C(=O)O)nc3c2c(C(C)C)nn3-c2ccc(F)cc2)CC1 [compound 667] 6.34
